conditions: 298.15 K; 101.3 kPa; Liquid; Capillary tube (Ostwald / Ubbelohde) method
Metric name: viscosity (mPa·s)

1: COCCO
2: CCCCCCCCO
3: CCCCCCO
4: CCCCCCCCCCO
Number of compounds to sort: 4. Sort criterion: viscosity, ascending. API: response body holds the labels in the requested order.
1, 3, 2, 4

* * *

conditions: 298.15 K; 101.3 kPa; Liquid; Vibrating tube method
Metric name: mass density (kg/m3)

>>> recorded_number("CCCCCCO")
815.265
>>> recorded_number("CCCCCCCCO")
821.794
>>> recorded_number("CCCCCCCCCCO")
826.47
>>> recorded_number("COCCO")
960.978

Recorded values, source the NIST ThermoML archive (doi:10.1021/je9005344).
